Every entry's value here was drawn from patent US7598253B2.

targetSystem: μ opiate receptor (Cavia porcellus)
Sequence (A0ACM8Q262 1-400): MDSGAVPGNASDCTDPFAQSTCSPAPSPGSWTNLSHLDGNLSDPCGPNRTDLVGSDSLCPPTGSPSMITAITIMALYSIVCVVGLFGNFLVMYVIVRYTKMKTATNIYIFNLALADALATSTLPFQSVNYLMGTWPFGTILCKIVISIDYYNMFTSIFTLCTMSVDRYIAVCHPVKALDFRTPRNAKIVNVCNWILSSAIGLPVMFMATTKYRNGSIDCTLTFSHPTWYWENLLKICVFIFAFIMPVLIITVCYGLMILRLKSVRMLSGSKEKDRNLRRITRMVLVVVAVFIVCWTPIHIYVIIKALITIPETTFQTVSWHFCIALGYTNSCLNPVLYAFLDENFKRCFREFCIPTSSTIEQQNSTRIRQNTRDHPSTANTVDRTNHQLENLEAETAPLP
assayInfo: biochemical
Assay type: binding, guinea pig
measuredParameter: pIC50
# log scale: pIC50 equals minus log10 of the concentration in mol/L

For orientation, consider the following solved cases.
Oc1ccc2c3c1O[C@H]1c4[nH]c5c(c4C[C@@]4(O)[C@@H](C2)N(CC2CC2)CC[C@]314)C[C@@]1(O)[C@H]2Cc3ccc(O)c4c3[C@@]1(CCN2CC1CC1)[C@H]5O4; 6.55
Oc1ccc2c3c1O[C@H]1c4[nH]c5ccccc5c4C[C@@]4(O)[C@@H](C2)N(CC2CC2)CC[C@]314; 7.57
O=C1CN2C(=O)CCN(CCc3ccc(O)cc3)C2CN1CCc1ccccc1 (stereo not shown); 5.27

Here is the next item to consider.
query: For the compound shown here, C[C@@H](NC(=O)[C@@H](N)Cc1ccc(O)cc1)C(=O)NCC(=O)N(C)[C@@H](Cc1ccccc1)C(=O)NCCO , give the reported pIC50.
result: 8.19

###

targetSystem: μ opiate receptor (Cavia porcellus)
measuredParameter: pKd
# log scale: pKd equals minus log10 of the concentration in mol/L

query: Short answer please: pKd, μ opiate receptor (Cavia porcellus), entry C[C@@H](NC(=O)[C@@H](N)Cc1ccc(O)cc1)C(=O)NCC(=O)N(C)[C@@H](Cc1ccccc1)C(=O)NCCO [[^3H]DAMGO]
result: 9.57

###

targetSystem: opioid receptor (non-selective)
assayInfo: Opiate (non-selective) binding, [3H]naloxone
conditionContext: [3H]naloxone (1 nM), rat cerebral cortex membranes
measuredParameter: pIC50
# log scale: pIC50 equals minus log10 of the concentration in mol/L

query: For the compound shown here, CCCCCN1C[C@@H]2N(C(=O)OCCc3ccc(O)cc3)CCC(=O)N2[C@@H](CCc2ccccc2)C1=O , give the reported pIC50.
result: 7.57

###

targetSystem: UniProt A0A286XTF2
assayInfo: Opiate (δ) binding, [3H]DPDPE competitive radioligand binding
Set-up: species or system guinea pig
measuredParameter: pKi
# log scale: pKi equals minus log10 of the concentration in mol/L

query: For the compound shown here, C[C@@H](NC(=O)[C@@H](N)Cc1ccc(O)cc1)C(=O)NCC(=O)N(C)[C@@H](Cc1ccccc1)C(=O)NCCO [DAMGO] , give the reported pKi.
result: 5.92

###

targetSystem: δ opiate receptor (Cavia porcellus)
assayInfo: Opiate (δ) binding, [3H]DPDPE competitive radioligand binding
Set-up: species or system guinea pig
conditionContext: read-out: IC50
measuredParameter: pIC50
# log scale: pIC50 equals minus log10 of the concentration in mol/L

query: Short answer please: pIC50, δ opiate receptor (Cavia porcellus), entry O=C1CN2C(=O)CCN(CCc3ccc(O)cc3)C2CN1CCc1ccccc1 (stereo not shown)
result: 5.16

###

targetSystem: δ opiate receptor (Cavia porcellus, UniProt A0A286XTF2)
Sequence (A0A286XTF2 1-366): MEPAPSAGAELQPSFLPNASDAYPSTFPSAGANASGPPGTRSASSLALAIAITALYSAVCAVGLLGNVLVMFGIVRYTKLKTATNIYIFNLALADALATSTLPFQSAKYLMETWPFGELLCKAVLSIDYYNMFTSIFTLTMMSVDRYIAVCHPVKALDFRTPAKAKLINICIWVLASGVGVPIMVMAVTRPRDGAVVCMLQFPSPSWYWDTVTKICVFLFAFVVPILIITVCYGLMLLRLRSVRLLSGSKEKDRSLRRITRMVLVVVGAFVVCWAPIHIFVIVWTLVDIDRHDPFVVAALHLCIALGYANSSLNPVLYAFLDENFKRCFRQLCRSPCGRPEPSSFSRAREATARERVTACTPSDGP
assayInfo: Opiate (δ) binding, [3H]DPDPE competitive radioligand binding
Design: species or system guinea pig
conditionContext: read-out: Ki
measuredParameter: Ki
Note: state the figure and append the unit.

query: For the molecule shown here, O=C1CN2C(=O)CCN(CCc3ccc(O)cc3)C2CN1CCc1ccccc1 (stereo not shown) , give the reported Ki.
result: 1700 nM

###

targetSystem: δ opiate receptor (Cavia porcellus, UniProt A0A286XTF2)
assayInfo: Opiate (δ) binding, [3H]DPDPE competitive radioligand binding
Design: species or system guinea pig
measuredParameter: IC50 (µM)
Record the value in µM, omitting the unit from your answer.

query: For the compound shown here, C[C@@H](NC(=O)[C@@H](N)Cc1ccc(O)cc1)C(=O)NCC(=O)N(C)[C@@H](Cc1ccccc1)C(=O)NCCO , give the reported IC50.
result: 4.8
